# System: CD-1 mice
# test-name: Toxicity studies: expression levels of ALT and AST after ASS1 mRNA-loaded lipid nanoparticles
# Type: in vivo, mouse
# setup-conditions: Table 2; single intravenous dose, 24 hours post; formulation cKK-E12:DOPE:Chol:DMG-PEG2K; several lots per structure; in U/L

compound: CCCCCCCCCCC(O)CN(CCCC[C@@H]1NC(=O)[C@H](CCCCN(CC(O)CCCCCCCCCC)CC(O)CCCCCCCCCC)NC1=O)CC(O)CCCCCCCCCC (stereo in doubt)
AST: 144 ± 35
//
compound: CCCCCCCCCC[C@H](O)CN(CCCC[C@@H]1NC(=O)[C@H](CCCCN(C[C@@H](O)CCCCCCCCCC)C[C@@H](O)CCCCCCCCCC)NC1=O)C[C@@H](O)CCCCCCCCCC
AST: 384 ± 233
//
compound: CCCCCCCCCC[C@@H](O)CN(CCCC[C@H]1NC(=O)[C@@H](CCCCN(C[C@H](O)CCCCCCCCCC)C[C@H](O)CCCCCCCCCC)NC1=O)C[C@H](O)CCCCCCCCCC
AST: 194 ± 80
//
compound: CCCCCCCCCC[C@H](O)CN(CCCC[C@H]1NC(=O)[C@@H](CCCCN(C[C@@H](O)CCCCCCCCCC)C[C@@H](O)CCCCCCCCCC)NC1=O)C[C@@H](O)CCCCCCCCCC
AST: 180 ± 42

Hello, the source for this data is patent US11104652B2, in case you need it.
